Where these numbers come from: ChEMBL document CHEMBL1127363

Species on record: Rattus norvegicus
Experimental protocol: Compound was tested to inhibit high affinity uptake of [3H]- -dopamine into striatal nerve endings (synaptosomes)
Format: functional, Brain
Please provide measured pKi for the entries that follow.
Answers are plain numbers, as −log10 of the molar value.

Example entries begin here.
Compound	pKi
COC(=O)[C@@H]1C2CCC(C[C@@H]1OC(=O)c1ccccc1)N2S(=O)(=O)c1ccccc1 (some centres undefined)	4.21
COC(=O)[C@@H]1C2CCC(C[C@@H]1OC(=O)c1ccccc1)N2S(=O)(=O)c1ccc([N+](=O)[O-])cc1 (some centres undefined)	4.73
COC(=O)[C@@H]1C2CCC(C[C@@H]1OC(=O)c1ccccc1)N2S(=O)(=O)c1ccc(OC)cc1 (some centres undefined)	4.79

Then this compound:
Q. Can you share its pKi? I mean this compound: COC(=O)[C@@H]1C2CCC(C[C@@H]1OC(=O)c1ccccc1)N2S(=O)(=O)C(F)(F)F (some centres undefined)
A. 6.12

----------
Species: Rattus norvegicus
Experimental protocol: Compound was tested to inhibit high affinity uptake of [3H]dopamine into striatal nerve endings (synaptosomes)
Assay type: functional, Brain
Measurement name: pKi
Answers are plain numbers, as −log10 of the molar value.

Q. Can you share its pKi? I mean this compound: COC(=O)[C@@H]1C2CCC(C[C@@H]1OC(=O)c1ccccc1)N2S(C)(=O)=O (stereo partly specified)
A. 5.71

----------
Organism: Rattus norvegicus
Experimental protocol: Compound was tested to inhibit high affinity uptake of [3H]- -Dopamine into striatal nerve endings (synaptosomes)
Format: functional, Brain
Measurement name: pKi
Answers are plain numbers, as −log10 of the molar value.

Q. Can you share its pKi? I mean this compound: COC(=O)[C@@H]1C2CC[C@@H](C[C@@H]1OC(=O)c1ccccc1)N2S(=O)(=O)N=C=O
A. 6.80

----------
Target or test system: Sodium-dependent dopamine transporter (Rattus norvegicus, UniProt P23977)
Sequence (P23977 whole entry): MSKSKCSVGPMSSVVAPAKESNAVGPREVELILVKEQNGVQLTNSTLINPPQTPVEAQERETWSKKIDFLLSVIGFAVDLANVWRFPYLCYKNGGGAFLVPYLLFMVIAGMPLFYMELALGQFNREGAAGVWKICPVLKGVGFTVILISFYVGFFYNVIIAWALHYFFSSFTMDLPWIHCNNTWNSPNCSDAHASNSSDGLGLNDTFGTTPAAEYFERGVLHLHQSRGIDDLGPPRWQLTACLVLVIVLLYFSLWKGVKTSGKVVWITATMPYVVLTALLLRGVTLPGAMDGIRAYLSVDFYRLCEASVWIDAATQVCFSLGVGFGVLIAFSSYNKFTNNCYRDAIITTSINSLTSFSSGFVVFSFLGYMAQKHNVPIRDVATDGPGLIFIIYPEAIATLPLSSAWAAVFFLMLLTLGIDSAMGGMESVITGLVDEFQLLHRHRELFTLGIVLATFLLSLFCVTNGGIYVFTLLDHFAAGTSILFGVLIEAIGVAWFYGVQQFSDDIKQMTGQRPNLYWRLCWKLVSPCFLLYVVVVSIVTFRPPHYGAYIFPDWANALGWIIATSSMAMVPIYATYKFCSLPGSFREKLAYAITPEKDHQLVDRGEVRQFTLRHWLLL
Experimental protocol: Binding affinity was tested by measuring its ability to displace [3H]-mazindol binding against dopamine transporter (DAT) of rat striatal membranes
Please provide measured pKi for the entries that follow.
Numbers only, as −log10 of the molar value.

Compound	Target or test system	Measurement name	Quantitative readout
COC(=O)[C@@H]1C2CCC(C[C@@H]1OC(=O)c1ccccc1)N2S(=O)(=O)C(F)(F)F (some centres undefined)	Sodium-dependent dopamine transporter (Rattus norvegicus, UniProt P23977)	pKi	6.48

Record pKi for all entries; do not skip any.
1. COC(=O)[C@@H]1C2CCC(C[C@@H]1OC(=O)c1ccccc1)N2S(=O)(=O)c1ccccc1 (some centres undefined)
2. COC(=O)[C@@H]1C2CCC(C[C@@H]1OC(=O)c1ccccc1)N2S(=O)(=O)c1ccc(OC)cc1 (some centres undefined)
3. COC(=O)[C@@H]1C2CCC(C[C@@H]1OC(=O)c1ccccc1)N2S(=O)(=O)c1ccc([N+](=O)[O-])cc1 (some centres undefined)

A.
1: 4.68; 2: 5.17; 3: 5.24

----------
Please provide measured Ki for the entries that follow.
Target or test system: Sodium-dependent dopamine transporter (Rattus norvegicus)
Experimental protocol: Binding affinity was tested by measuring its ability to displace [3H]mazindol binding against dopamine transporter (DAT) of rat striatal membranes
Give bare numbers, in nM.

Compound	Quantitative readout
COC(=O)[C@@H]1C2CCC(C[C@@H]1OC(=O)c1ccccc1)N2S(C)(=O)=O (some centres not stated)	1290

Then this compound:
Q. Can you share its Ki? I mean this compound: COC(=O)[C@@H]1C2CC[C@@H](C[C@@H]1OC(=O)c1ccccc1)N2S(=O)(=O)N=C=O
A. 120
